Listing: concentration, Permeate LPRO of selected compounds
Test: Rejection of micropollutants by low pressure reverse osmosis (LPRO), diluted DS as feed
Details: permeate of LPRO at 15 bar

# example entries with known answers
compound: CC(C(=O)O)c1cccc(C(=O)c2ccccc2)c1 (stereo not shown) [Ketoprofen]
concentration, Permeate LPRO: <0.01 ng/mL
--
compound: CC(C(=O)O)c1cccc(Oc2ccccc2)c1 (stereo not shown) [Fenoprofen]
concentration, Permeate LPRO: <0.01 ng/mL
--
compound: Cc1ccc(C)c(OCCCC(C)(C)C(=O)O)c1 [Gemfibrozil]
concentration, Permeate LPRO: <0.01 ng/mL

Now take the following compound into account.
So for C#C[C@]1(O)CC[C@H]2[C@@H]3CCc4cc(O)ccc4[C@H]3CC[C@@]21C [17α-ethynilestradiol] , the logged concentration, Permeate LPRO turned out to be <0.001 ng/mL

* * *

Assay: Rejection of micropollutants by low pressure reverse osmosis (LPRO), diluted DS as feed
Conditions: permeate of LPRO at 15 bar
Each entry gets F if its concentration, Permeate LPRO stays under 0.06 µg/L, and T if its concentration, Permeate LPRO is 0.06 µg/L or above.

Please review the following examples before continuing.
compound: Cn1c(=O)c2c(ncn2C)n(C)c1=O [Caffeine]
class.name: F
//
compound: Cc1ncc([N+](=O)[O-])n1CCO [Metronidazole]
class.name: T

Enquiry: Hi team, for NC(=O)N1c2ccccc2C=Cc2ccccc21 [Carbamazepine] , is the recorded concentration, Permeate LPRO at or above 0.06 µg/L?
Return: F

Enquiry: Hi team, for CC(=O)Nc1ccc(O)cc1 [Acetaminophen] , is the recorded concentration, Permeate LPRO at or above 0.06 µg/L?
Return: T

Enquiry: Hi team, for CC(C)(c1ccc(O)cc1)c1ccc(O)cc1 [Bisphenol A] , is the recorded concentration, Permeate LPRO at or above 0.06 µg/L?
Return: F
